- System: Human RSV-A (“Long” strain)
- Experiment summary: RSV in vitro cytoprotection assay (CPE, ATPlite) in HEp-2 cells
- Assay type: cell-based
- Measurement context: human respiratory syncytial virus, 96 h; HEp-2 cells, 4-day incubation, ATPlite readout; read-out: Human RSV-A (“Long” strain) EC50
Listing of entries alongside the reported EC50.
Reported metric: EC50

Cc1cnc(N2CC3(CCOCC3)C2)c(C(=O)Nc2ccc(C(=O)N3CCc4c(sc(C(=O)Nc5c(F)cccc5C(F)(F)F)c4F)-c4ccccc43)cc2)c1: < 0.01 µM
Cc1cnc(N2CC3(CCOCC3)C2)c(C(=O)Nc2ccc(C(=O)N3CCc4cc(C(=O)Nc5c(F)cc(F)cc5Cl)oc4-c4ccc(F)cc43)cc2)c1: < 0.01 µM
O=C(Nc1c(F)cccc1F)c1cc2c(s1)-c1ccc(F)cc1N(C(=O)c1ccc(NC(=O)c3cccnc3-c3ccc(N4CCOCC4)cc3)cc1)CC2: > 0.05 µM
O=C(Nc1c(F)cccc1F)c1cc2c(s1)-c1ccc(F)cc1N(C(=O)c1ccc(NC(=O)c3cc4c(nc3N3CC5(CCOCC5)C3)CCC4)cc1)CC2: < 0.01 µM
Cc1cnc(N2CC3(CCOCC3)C2)c(C(=O)Nc2ccc(C(=O)N3CCc4cc(-c5c[nH]c6ccc(Cl)cc56)sc4-c4ccc(F)cc43)cc2)c1: > 0.05 µM
O=C(Nc1c(F)cccc1F)c1cc2c(s1)-c1ccc(F)cc1N(C(=O)c1ccc(NC(=O)c3cccnc3N3CCOc4ccccc4C3)cc1)CC2: > 0.05 µM
Cc1cnc(N2CC3(CCOCC3)C2)c(C(=O)Nc2ccc(C(=O)N3CCc4c(sc(NC(=O)c5c(F)cccc5Cl)c4F)-c4ccccc43)cc2)c1: < 0.01 µM
Cc1cnc(N2CC3(CCOCC3)C2)c(C(=O)Nc2ccc(C(=O)N3CCc4cc(NC(=O)OC5CCC5)sc4-c4ccccc43)cc2)c1: < 0.01 µM
Cc1cnc(N2CC3(CCOCC3)C2)c(C(=O)Nc2ccc(C(=O)N3CCc4cc(C(=O)Nc5c(Cl)cncc5Cl)sc4-c4ccc(F)cc43)cc2)c1: < 0.01 µM
Cc1cnc(N2CC3(CCOCC3)C2)c(C(=O)Nc2ccc(C(=O)N3CCc4cc(C(=O)Nc5ncccc5C(F)(F)F)sc4-c4ccc(F)cc43)cc2)c1: < 0.01 µM
Cc1cc(C(=O)Nc2ccc(C(=O)N3CCc4c(sc(C(=O)Nc5ncccc5F)c4F)-c4ccccc43)cc2)c(N2CC3(CCOCC3)C2)nc1C: < 0.01 µM
CC1(CNc2ncccc2C(=O)Nc2ccc(C(=O)N3CCc4cc(C(=O)Nc5c(F)cccc5F)sc4-c4ccc(F)cc43)cc2)CCCO1 (stereo not drawn): > 0.05 µM
O=C(Nc1ncccc1C(F)(F)F)c1cc2c(s1)-c1ccc(F)cc1N(C(=O)c1ccc(NC(=O)c3cc4c(nc3N3CC5(CCOCC5)C3)CCC4)cc1)CC2: < 0.01 µM
Cc1cnc(N2CC3(CCOCC3)C2)c(C(=O)Nc2ccc(C(=O)N3CCc4c(sc(C(=O)Nc5nc(C)ccc5F)c4F)-c4ccccc43)cc2)c1: < 0.01 µM
O=C(Nc1ccc(C(=O)N2CCc3cc(-c4nc5ccccc5[nH]4)sc3-c3ccc(C(F)(F)F)cc32)cc1)c1cccnc1N1CC2(CCOCC2)C1: > 0.05 µM
Cc1cnc(N2CC3(CCOCC3)C2)c(C(=O)Nc2ccc(C(=O)N3CCc4cc(NC(=O)c5c(F)cccc5C(F)(F)F)sc4-c4ccccc43)cc2)c1: 0.01 to 0.05 µM
CCn1nccc1-c1cc2c(s1)-c1ccc(F)cc1N(C(=O)c1ccc(NC(=O)c3cc(C)cnc3N3CC4(CCOCC4)C3)cc1)CC2: < 0.01 µM
Cc1cnc(N2CC3(CCOCC3)C2)c(C(=O)Nc2ccc(C(=O)N3CCc4cc(NC(=O)c5ccccc5F)sc4-c4ccccc43)cc2)c1: < 0.01 µM
